All figures here come from patent US10464978B2.

Target: HLA-A*02:01 (Homo sapiens, UniProt P04439, D140Y/D185E/D98H/E176V/E277Q/G131W/G231S/I119V/I121R/I166T/I218V/L300P/L318F/N151K/N90K/P208A/P217A/Q86G/Q94H/R138H/R169H/T345S)
Assay: MHC binding assay: UV-ligand exchange with beta2m ELISA (peptide exchange yield)
Settings: binding to HLA-A*02:01
measured.parameter: Peptide exchange (MHC class I binding score, peptide exchange yield)

>>> value_measured("264 (SLQEQLHSV; listed as Homo sapiens) [compound 264]")
"“+++” (≥50 = +++)"
>>> value_measured("13 (YLMDESLNL; listed as Homo sapiens) [compound 13]")
"“+++” (≥50 = +++)"
>>> value_measured("279 (ALWGGTQPLL; listed as Homo sapiens) [compound 279]")
"“++” (≥20% = ++)"
>>> value_measured("330 (QLALKVEGV; listed as Homo sapiens) [compound 330]")
"“+++” (≥50 = +++)"
>>> value_measured("127 (KIGDEPPKV; listed as Homo sapiens) [compound 127]")
"“++” (≥20% = ++)"
>>> value_measured("461 (VMFRTPLASV; listed as Homo sapiens) [compound 461]")
"“++” (≥20% = ++)"
>>> value_measured("344 (YLQDQHLLLTV; listed as Homo sapiens) [compound 344]")
"“+++” (≥50 = +++)"

* * *

Target: HLA-A*02:01 (Homo sapiens, UniProt P04439, D140Y/D185E/D98H/E176V/E277Q/G131W/G231S/I119V/I121R/I166T/I218V/L300P/L318F/N151K/N90K/P208A/P217A/Q86G/Q94H/R138H/R169H/T345S)
Assay: MHC binding assay: UV-ligand exchange with beta2m ELISA (peptide exchange yield)
Details: binding to HLA-A*02:01
measured.parameter: Peptide exchange (MHC class I binding score, peptide exchange yield)

>>> value_measured("99 (ALVSKGLATV; listed as Homo sapiens) [compound 99]")
"“++” (≥20% = ++)"
>>> value_measured("121 (GVVDPRAISVL; listed as Homo sapiens) [compound 121]")
"“++” (≥20% = ++)"
>>> value_measured("396 (ALLPDLPAL; listed as Homo sapiens) [compound 396]")
"“+++” (≥50 = +++)"
>>> value_measured("603 (FLIEPEHVNTV; listed as Homo sapiens) [compound 603]")
"“++” (≥20% = ++)"
>>> value_measured("214 (FLLDLDPLLL; listed as Homo sapiens) [compound 214]")
"“+++” (≥50 = +++)"
>>> value_measured("325 (FIMPATVADATAV; listed as Homo sapiens) [compound 325]")
"“+++” (≥50 = +++)"
>>> value_measured("168 (KILDADIQL; listed as Homo sapiens) [compound 168]")
"“++++” (≥75% = ++++)"
>>> value_measured("310 (FLVDTPLARA; listed as Homo sapiens) [compound 310]")
"“++++” (≥75% = ++++)"
>>> value_measured("583 (ILANDGVLLAA; listed as Homo sapiens) [compound 583]")
"“+++” (≥50 = +++)"

* * *

Molecular target: HLA-A*02:01 (Homo sapiens, UniProt P04439, D140Y/D185E/D98H/E176V/E277Q/G131W/G231S/I119V/I121R/I166T/I218V/L300P/L318F/N151K/N90K/P208A/P217A/Q86G/Q94H/R138H/R169H/T345S)
Assay: MHC binding assay: UV-ligand exchange with beta2m ELISA (peptide exchange yield)
Details: binding to HLA-A*02:01
measured.parameter: Peptide exchange (MHC class I binding score, peptide exchange yield)

>>> value_measured("352 (SLLELLHIYV; listed as Homo sapiens) [compound 352]")
"“+++” (≥50 = +++)"
>>> value_measured("335 (YSLSSVVTV; listed as Homo sapiens) [compound 335]")
"“+++” (≥50 = +++)"
>>> value_measured("239 (AAFAGKLLSV; listed as Homo sapiens) [compound 239]")
"“+++” (≥50 = +++)"
>>> value_measured("77 (ILVEADGAWVV; listed as Homo sapiens) [compound 77]")
"“++++” (≥75% = ++++)"
>>> value_measured("621 (VLMDRLPSLL; listed as Homo sapiens) [compound 621]")
"“++++” (≥75% = ++++)"
>>> value_measured("228 (AMQEYIAVV; listed as Homo sapiens) [compound 228]")
"“++” (≥20% = ++)"
>>> value_measured("359 (YLLPESVDL; listed as Homo sapiens) [compound 359]")
"“+++” (≥50 = +++)"
>>> value_measured("297 (VLADIELAQA; listed as Homo sapiens) [compound 297]")
"“+++” (≥50 = +++)"
>>> value_measured("217 (ALIHPVSTV; listed as Homo sapiens) [compound 217]")
"“++” (≥20% = ++)"
>>> value_measured("242 (AIAYILQGV; listed as Homo sapiens) [compound 242]")
"“++” (≥20% = ++)"
>>> value_measured("164 (ALLPQPKNLTV; listed as Homo sapiens) [compound 164]")
"“+++” (≥50 = +++)"
>>> value_measured("200 (LLFGSVQEV; listed as Homo sapiens) [compound 200]")
"“+++” (≥50 = +++)"
>>> value_measured("600 (ALAAPDIVPAL; listed as Homo sapiens) [compound 600]")
"“+++” (≥50 = +++)"
>>> value_measured("5 (HLTEVYPEL; listed as Homo sapiens) [compound 5]")
"“+++” (≥50 = +++)"
>>> value_measured("148 (ALNPEIVSV; listed as Homo sapiens) [compound 148]")
"“++” (≥20% = ++)"
>>> value_measured("524 (ALIENLTHQI; listed as Homo sapiens) [compound 524]")
"“++” (≥20% = ++)"
>>> value_measured("394 (LLAVIGGLVYL; listed as Homo sapiens) [compound 394]")
"“+++” (≥50 = +++)"
>>> value_measured("215 (QLINHLHAV; listed as Homo sapiens) [compound 215]")
"“+++” (≥50 = +++)"
>>> value_measured("426 (RLADKSVLV; listed as Homo sapiens) [compound 426]")
"“+++” (≥50 = +++)"
>>> value_measured("407 (YLMDLINFL; listed as Homo sapiens) [compound 407]")
"“+++” (≥50 = +++)"
>>> value_measured("327 (GLAPFTEGISFV; listed as Homo sapiens) [compound 327]")
"“+++” (≥50 = +++)"
>>> value_measured("321 (GLFEDVTQPGILL; listed as Homo sapiens) [compound 321]")
"“++++” (≥75% = ++++)"
>>> value_measured("553 (SLLNQDLHWSL; listed as Homo sapiens) [compound 553]")
"“++++” (≥75% = ++++)"
>>> value_measured("347 (SLFKHDPAAWEA; listed as Homo sapiens) [compound 347]")
"“++++” (≥75% = ++++)"
>>> value_measured("498 (KLWTGGLDNTV; listed as Homo sapiens) [compound 498]")
"“+++” (≥50 = +++)"
>>> value_measured("479 (SLFGNSGILENV; listed as Homo sapiens) [compound 479]")
"“+++” (≥50 = +++)"
>>> value_measured("81 (FLFSQLQYL; listed as Homo sapiens) [compound 81]")
"“++” (≥20% = ++)"
>>> value_measured("372 (TMLLNIPLV; listed as Homo sapiens) [compound 372]")
"“++” (≥20% = ++)"
>>> value_measured("587 (VMNDRLYAI; listed as Homo sapiens) [compound 587]")
"“+++” (≥50 = +++)"
>>> value_measured("398 (KLLEEDGTIITL; listed as Homo sapiens) [compound 398]")
"“++” (≥20% = ++)"
>>> value_measured("527 (FLLEPGNLEV; listed as Homo sapiens) [compound 527]")
"“++++” (≥75% = ++++)"
>>> value_measured("561 (YLQLTQSEL; listed as Homo sapiens) [compound 561]")
"“+++” (≥50 = +++)"
>>> value_measured("183 (FGLDLVTEL; listed as Homo sapiens) [compound 183]")
"“+++” (≥50 = +++)"
>>> value_measured("33 (VLLSLLEKV; listed as Homo sapiens) [compound 33]")
"“++” (≥20% = ++)"
>>> value_measured("241 (SLVEVNPAYSV; listed as Homo sapiens) [compound 241]")
"“+++” (≥50 = +++)"
>>> value_measured("273 (NLFQSVREV; listed as Homo sapiens) [compound 273]")
"“++” (≥20% = ++)"
>>> value_measured("542 (RVWDISTVSSV; listed as Homo sapiens) [compound 542]")
"“+++” (≥50 = +++)"
